molecular target: IL-23R (Homo sapiens, UniProt Q5VWK5); construct: host or cells: HEK293; test: IL23R Reporter Assay; format: cell-based; conditions: HEK293 cells containing IL-23R, IL-12RP1 and STAT-inducible firefly luciferase reporter; 10 ng/mL IL-23 (EC90); 5 h at 37° C.; read-out: IL23R Reporter Assay
Sequence (Q5VWK5 24-629): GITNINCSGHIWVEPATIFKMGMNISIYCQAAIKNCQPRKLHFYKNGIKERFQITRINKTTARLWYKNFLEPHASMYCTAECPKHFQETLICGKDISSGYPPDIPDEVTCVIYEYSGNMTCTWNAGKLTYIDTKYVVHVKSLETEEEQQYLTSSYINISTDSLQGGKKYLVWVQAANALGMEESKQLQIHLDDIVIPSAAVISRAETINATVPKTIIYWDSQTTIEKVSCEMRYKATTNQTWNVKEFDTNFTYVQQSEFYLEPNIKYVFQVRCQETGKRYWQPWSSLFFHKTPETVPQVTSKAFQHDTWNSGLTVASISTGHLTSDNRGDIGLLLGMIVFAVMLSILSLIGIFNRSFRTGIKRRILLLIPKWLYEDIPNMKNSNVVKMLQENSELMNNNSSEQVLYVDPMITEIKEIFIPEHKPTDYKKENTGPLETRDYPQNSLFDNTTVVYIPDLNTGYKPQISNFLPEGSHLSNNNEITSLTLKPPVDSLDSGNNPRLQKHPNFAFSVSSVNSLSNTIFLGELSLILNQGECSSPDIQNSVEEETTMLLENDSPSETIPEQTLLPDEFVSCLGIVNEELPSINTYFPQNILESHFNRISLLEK
pIC50: −log10 of the molar value.
Recorded pIC50 for the following compounds
value.kind: pIC50

sample_smiles=CC(=O)NCCCC[C@@H]1NC(=O)[C@H](Cc2c[nH]c3c(C)cccc23)NC(=O)[C@H]([C@@H](C)O)NC(=O)[C@H](CC(N)=O)NC(=O)[C@@H](NC(C)=O)C(C)(C)SSC(C)(C)[C@@H](C(=O)N[C@@H](Cc2ccc(OCCCCC[N+](C)(C)C)cc2)C(=O)N[C@@H](Cc2ccc3ccccc3c2)C(=O)NC2(C(=O)N[C@@H](CCCCNC(C)=O)C(=O)N[C@@H](CC(N)=O)C(=O)N[C@@H](Cc3cccnc3)C(=O)N(C)CC(N)=O)CCCCC2)NC1=O assay_target="IL-23R (Homo sapiens, UniProt Q5VWK5)" observed_measurement=8.46
sample_smiles=CC(=O)NCCCC[C@@H]1NC(=O)[C@H](Cc2c[nH]c3c(C)cccc23)NC(=O)[C@H]([C@@H](C)O)NC(=O)[C@H](CC(N)=O)NC(=O)[C@@H](NC(=O)CCCc2ccc(I)cc2)C(C)(C)SSC(C)(C)[C@@H](C(=O)N[C@@H](Cc2ccc(OCCCCC[N+](C)(C)C)cc2)C(=O)N[C@@H](Cc2ccc3ccccc3c2)C(=O)NC2(C(=O)N[C@@H](CCCCNC(C)=O)C(=O)N[C@@H](CC(N)=O)C(=O)N[C@@H](Cc3cccnc3)C(=O)N(C)CC(N)=O)CCOCC2)NC1=O assay_target="IL-23R (Homo sapiens, UniProt Q5VWK5)" observed_measurement=8.34
sample_smiles=CC(=O)N(C)CCCC[C@@H]1NC(=O)[C@H](Cc2c[nH]c3c(C)cccc23)NC(=O)[C@H]([C@@H](C)O)NC(=O)[C@H](CC(=O)N(C)C)NC(=O)[C@@H](NC(=O)CCOCCOCC[N+](C)(C)C)C(C)(C)SSC(C)(C)[C@@H](C(=O)N[C@@H](Cn2cc(CC[N+](C)(C)C)nn2)C(=O)N[C@@H](Cc2ccc3ccccc3c2)C(=O)NC2(C(=O)N[C@@H](CCCCN(C)C(C)=O)C(=O)N[C@@H](CC(N)=O)C(=O)N[C@@H](Cc3cccnc3)C(=O)N(C)CC(=O)N(C)C)CCOCC2)NC1=O assay_target="IL-23R (Homo sapiens, UniProt Q5VWK5)" observed_measurement=7.62

---

assay: Exposed Polar Surface Area (EPSA); assay type: physicochemical; conditions: SFC on Chirex 3014 column; sample 1 mM DMSO stock; read-out: EPSA
value.kind: EPSA (A^2)

molecule=CC(=O)NCCCC[C@@H]1NC(=O)[C@H](Cc2c[nH]c3c(-c4cccc(NC(C)=O)c4)cccc23)NC(=O)[C@H]([C@@H](C)O)NC(=O)[C@H](CC(N)=O)NC(=O)[C@@H](NC(=O)CCOCCOCC[N+](C)(C)C)C(C)(C)SSC(C)(C)[C@@H](C(=O)N[C@@H](Cc2ccc(OCCNC(=N)N)cc2)C(=O)N[C@@H](Cc2ccc3ccccc3c2)C(=O)NC2(C(=O)N[C@@H](CCCCN(C)C(C)=O)C(=O)N[C@@H](CC(N)=O)C(=O)N[C@@H](Cc3cncc(C)c3)C(=O)N(C)CC(N)=O)CCOCC2)NC1=O value_kind=EPSA observed_measurement=186
molecule="CC(=O)N[C@@H]1C(=O)N[C@@H](CC(=O)N(C)C)C(=O)N[C@@H]([C@@H](C)O)C(=O)N[C@@H](Cc2c[nH]c3c(C)cccc23)C(=O)N[C@H](COCCOCC[N+](C)(C)C)C(=O)N[C@H](C(=O)N[C@@H](Cc2ccc(OCCOCCOCC[N+](C)(C)C)cc2)C(=O)N[C@@H](Cc2ccc3ccccc3c2)C(=O)NC2(C(=O)N[C@@H](COCCOCC[N+](C)(C)C)C(=O)N[C@@H](CC(N)=O)C(=O)N[C@@H](Cc3cccnc3)C(=O)N(C)CC(=O)N(C)C)CCOCC2)C(C)(C)SSC1(C)C (relative stereo)" value_kind=EPSA observed_measurement=141

These entries and their values trace back to patent US20260022143A1.
